test: yeast display, Sf9 membrane polyspecificity reagent, FACS + sequencing; frameworks hold sequencing errors
readoutKind: polyreactivity (PSR sort gate)

[[record]]
sequencerecord = "QVQLVESGGGLVQAGGSLRLSCAASGITIVNYVMGWYRKAPGKERELVAAISIGGGTYYADSVKGRFTISRDNAKNTVYLQINSLKPEDTAVYYCNASYGGLSFYIGVYVTGYDYWGQGTQVTVSS"
readoutkind = "polyreactivity (PSR sort gate)"
reportedmeasurement = "low polyreactivity"

[[record]]
sequencerecord = "QVQLVESGGGLVQAGGSLRLRCAASGSTFDGNAMGWYRQAPGKETELVAAITSGGSTNYADSVKGRFTISRDNANNTVYFQMYSLKPEDTAVYYCAAYTVSFSILYDYWGQGTQVTLSS"
readoutkind = "polyreactivity (PSR sort gate)"
reportedmeasurement = "low polyreactivity"

